TESTED SYSTEM: GLUT1 (Homo sapiens, UniProt P11166)
Sequence (P11166 whole entry, species assumed): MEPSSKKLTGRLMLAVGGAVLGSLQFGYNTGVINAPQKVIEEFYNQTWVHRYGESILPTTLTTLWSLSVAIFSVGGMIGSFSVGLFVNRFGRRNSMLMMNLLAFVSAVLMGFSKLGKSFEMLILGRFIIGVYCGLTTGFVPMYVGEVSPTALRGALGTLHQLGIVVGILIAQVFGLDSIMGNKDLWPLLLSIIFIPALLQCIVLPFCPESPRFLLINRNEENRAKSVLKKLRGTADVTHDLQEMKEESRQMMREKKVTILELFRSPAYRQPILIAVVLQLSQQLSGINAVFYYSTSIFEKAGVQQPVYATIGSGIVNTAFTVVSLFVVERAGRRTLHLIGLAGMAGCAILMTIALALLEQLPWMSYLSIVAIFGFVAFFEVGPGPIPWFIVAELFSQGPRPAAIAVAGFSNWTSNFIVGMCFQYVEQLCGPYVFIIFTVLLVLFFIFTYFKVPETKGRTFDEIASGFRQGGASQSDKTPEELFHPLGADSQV
MEASUREMENT DESCRIPTION: Indirect measurement of GLUT1 activity by quantification of intracellular ATP levels (glucose induced ATP increase)
Assay type: cell-based
Parameters: endogenous in cells; host or cells: DLD1 or CHO-K1
CONDITION: read-out: IC50 regarding glucose induced ATP increase (GLUT1 inhibition)
For each record, write down the corresponding pIC50.
One number for each entry, as −log10 of the molar value.

| COMPOUND | TESTED SYSTEM | pIC50 |
| --- | --- | --- |
| COc1cc(C(=O)Nc2c(C)nn(Cc3cccc(OC(F)(F)F)c3)c2C)c2ccccc2n1 | GLUT1 (Homo sapiens, UniProt P11166) | 6.08 |
| Cc1c(NC(=O)c2cc(S(C)(=O)=O)nc3ccccc23)c(C(F)(F)F)nn1Cc1ccc(C#N)cc1 | GLUT1 (Homo sapiens, UniProt P11166) | 8.44 |
| Cc1nn(Cc2ccc(F)cc2)c(C)c1NC(=O)c1cc(C(N)=O)nc2cc(F)c(F)cc12 | GLUT1 (Homo sapiens, UniProt P11166) | 8.82 |
| Cc1c(NC(=O)c2cc(C(N)=O)nc3ccc(Br)cc23)c(C(F)(F)F)nn1Cc1ccc(F)cc1F | GLUT1 (Homo sapiens, UniProt P11166) | 8.70 |
| Cc1nn(Cc2ccc(C(=O)N[C@H](C)[C@@H](C)O)cc2)c(C)c1NC(=O)c1cc(C(F)(F)F)nc2ccc(Br)cc12 (relative stereo) | GLUT1 (Homo sapiens, UniProt P11166) | 7.82 |

Parameter requested: pIC50. Apply to each item below.
1. Cc1nn(CCc2ccc(F)cc2)c(C)c1NC(=O)c1cc(C(N)=O)nc2ccccc12
2. Cc1nn(Cc2ccc(C#N)nc2)c(C)c1NC(=O)c1cc(C(N)=O)nc2ccc(Br)cc12
3. Cc1nn(Cc2ccc(S(C)(=O)=O)cc2)c(C)c1NC(=O)c1cc(C(N)=O)nc2ccccc12
4. Cc1nn(Cc2cc(F)cc(F)c2)c(C)c1NC(=O)c1cc(C(F)(F)F)nc2c(Cl)cc(Cl)cc12

Return:
7.38
9.00
7.95
5.80

Parameter requested: pIC50. Apply to each item below.
1. Cc1c(NC(=O)c2cc(C(N)=O)nc3ccccc23)c(C(F)(F)F)nn1Cc1ccc(C(C)(C)C#N)cc1
2. CCN(CC)C(=O)c1ccc(Cn2nc(C)c(NC(=O)c3cc(C(F)(F)F)nc4ccc(Br)cc34)c2C)cc1
3. Cc1nn(Cc2cc(C(C)C)no2)c(C)c1NC(=O)c1cc(C(N)=O)nc2ccccc12
4. Cc1cc(Cn2nc(C)c(NC(=O)c3cc(C(N)=O)nc4ccccc34)c2C)on1
5. Cc1nn(Cc2ccc(C(=O)NCCO)cc2)c(C)c1NC(=O)c1cc(C(N)=O)nc2cc(F)ccc12

Return:
1. 7.33
2. 6.36
3. 7.25
4. 7.40
5. 6.45

Enquiry: # lookup: pIC50 of COCc1ccc(Cn2nc(C)c(NC(=O)c3cc(C(N)=O)nc4cc(F)ccc34)c2C)cc1
Return: 8.41
